Biological target: T1, dimeric human PRLR (hPRLR.mFc; SEQ ID NO:402) (Homo sapiens, UniProt P16471)
T1 construct: dimeric (hPRLR.mFc)
T1 sequence (P16471 with tags, fused parts or gaps): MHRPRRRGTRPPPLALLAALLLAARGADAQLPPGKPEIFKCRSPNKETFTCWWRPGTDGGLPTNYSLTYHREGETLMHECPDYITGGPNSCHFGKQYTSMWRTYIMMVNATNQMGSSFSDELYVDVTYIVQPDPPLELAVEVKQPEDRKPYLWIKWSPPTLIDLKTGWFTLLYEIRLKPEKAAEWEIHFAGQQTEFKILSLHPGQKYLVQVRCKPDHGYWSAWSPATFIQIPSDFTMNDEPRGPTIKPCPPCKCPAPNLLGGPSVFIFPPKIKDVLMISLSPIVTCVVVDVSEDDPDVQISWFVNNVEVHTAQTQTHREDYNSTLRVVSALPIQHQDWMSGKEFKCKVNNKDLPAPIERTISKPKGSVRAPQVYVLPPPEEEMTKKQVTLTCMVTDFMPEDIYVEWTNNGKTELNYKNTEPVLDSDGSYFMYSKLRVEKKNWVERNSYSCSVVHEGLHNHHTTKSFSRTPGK
Assay: Surface plasmon resonance (Biacore T200), antibody-capture format
Assay type: binding
Conditions: 25° C., analyte hPRLR.mFc
Reported kd values for a set of molecules
Write the answer as a number in s⁻¹, unit excluded.

Q. # lookup: kd of H1H6785P: fully human anti-PRLR antibody, human IgG1 Fc; HCVR/LCVR SEQ ID NOs 98/106 (antibody, V domains shown) VH: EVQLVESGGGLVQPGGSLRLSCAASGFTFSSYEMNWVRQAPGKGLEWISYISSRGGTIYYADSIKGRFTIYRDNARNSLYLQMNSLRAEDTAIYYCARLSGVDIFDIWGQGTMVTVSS VL: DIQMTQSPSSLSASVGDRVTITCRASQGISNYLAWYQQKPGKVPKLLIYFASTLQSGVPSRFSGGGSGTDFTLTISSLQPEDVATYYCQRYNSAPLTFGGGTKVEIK
A. 6.07e-05

Please find the next molecule below.
Q. Quick check: kd of H1H6976N: anti-PRLR antibody, human IgG1 Fc form of H2M6976N of Table 1; HCVR/LCVR SEQ ID NOs 386/394 (antibody, V domains shown, human IgG1 Fc) VH: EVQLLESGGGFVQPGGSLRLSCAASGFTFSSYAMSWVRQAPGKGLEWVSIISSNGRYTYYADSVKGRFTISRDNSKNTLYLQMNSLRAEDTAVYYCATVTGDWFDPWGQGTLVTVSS VL: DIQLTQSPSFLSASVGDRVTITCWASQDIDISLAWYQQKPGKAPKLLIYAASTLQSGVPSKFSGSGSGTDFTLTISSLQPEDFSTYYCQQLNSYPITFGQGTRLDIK ?
A. 0.000101
